The measurements presented in this section are drawn from the supplement of paper PMC12340641.

- System: HEK293FT dCK*-IKZF1
- protocol-summary: relative growth recovery (pomalidomide 10 uM = 100%, DMSO = 0%); higher = more growth rescue (IKZF1 fusion degradation)
- particulars: compound concentration: 5 uM; AraC concentration: 0.3 uM; overnight pretreatment + 4 days AraC
Whole data set: some 1,000 compounds, median “relative growth recovery (pomalidomide 10 uM = 100%, DMSO = 0%)” near -1.6, cut for the highest 2% near 21. This is one part of a sample in which the highest values are shown more often than they occur.

compound | relative growth recovery / %
Cc1cc(C)nc(NS(=O)(=O)c2ccc(Nc3nc(-c4cccnc4)cs3)cc2)n1 | -1.15
O=C(C1CCCCC1)N1CCOC(c2cccc(Nc3ncc(Cc4ccccc4)s3)n2)C1 (stereo not given) | 2.33
Cc1ccc(/C=C/C(=O)Nc2ccc(S(=O)(=O)Nc3ncccn3)cc2)cc1 | -2.17
Cc1cc(NS(=O)(=O)c2ccc(NC(=O)c3ccccc3C)cc2)nc(C)n1 | -1.93
CCOc1ccccc1OCC(=O)Nc1ccc(S(=O)(=O)Nc2ccccn2)cc1 | -1.77
Cc1cnc(Nc2cccc(C(C(=O)N(C)C)C3CCN(C(=O)[C@H](CC(C)C)NC(=O)OC(C)(C)C)CC3)n2)s1 (stereo not given in full) | 3.71
CCc1nccn1CC(=O)N1CCOC(c2cccc(Nc3ncc(C)s3)n2)C1 (stereo not given) | 0.35
Cc1cccc(C)c1OCC(=O)Nc1ccc(S(=O)(=O)Nc2ncccn2)cc1 | 1.77
Cc1ccc2[nH]c3nc(SCC(=O)Nc4ccc(F)cc4)nnc3c2c1 | -0.35
Cc1nc(Nc2cccc(C3CCCN3C(=O)CCOc3cccc(F)c3)n2)sc1C (stereo not given) | 8.19

* * *

Entries and their relative growth recovery
- System: HEK293FT dCK*-IKZF1
- protocol-summary: relative growth recovery (pomalidomide 10 uM = 100%, DMSO = 0%); higher = more growth rescue (IKZF1 fusion degradation)
- particulars: compound concentration: 5 uM; AraC concentration: 0.3 uM; overnight pretreatment + 4 days AraC
Over roughly 1,000 compounds, “relative growth recovery (pomalidomide 10 uM = 100%, DMSO = 0%)” has its median near -1.6; the highest 2% begin near 21. Many of the other results were omitted from the sample, so the highest values are more common in it than they were.
measured-metric: relative growth recovery (%)

molecule | target-of-assay | measured-metric | recorded-measurement
Cc1ccnc(NS(=O)(=O)c2ccc(NC(=O)c3ccc(C)c(C)c3)cc2)n1 | HEK293FT dCK*-IKZF1 | relative growth recovery | 1.75
Cc1csc(Nc2cccc(C3CCN(C(=O)Cn4nc(C)cc4C)CC3)n2)n1 | HEK293FT dCK*-IKZF1 | relative growth recovery | 16.9
Cc1ccc(Oc2ccc(N3C(=O)c4ccc(Oc5ccc(N)cc5)cc4C3=O)cc2)cc1C | HEK293FT dCK*-IKZF1 | relative growth recovery | -8.53
COc1cc(NS(=O)(=O)c2ccc(NC(=O)c3ccccc3C)cc2)nc(OC)n1 | HEK293FT dCK*-IKZF1 | relative growth recovery | -0.335
O=C1CCC(N2C(=O)c3ccc(N4CCC(C(=O)O)CC4)cc3C2=O)C(=O)N1 (stereo unspecified) | HEK293FT dCK*-IKZF1 | relative growth recovery | 1.72
O=C(CSc1nc2cc(Cl)ccc2[nH]1)Nc1ncccn1 | HEK293FT dCK*-IKZF1 | relative growth recovery | -1.69
O=C(Nc1ccc(S(=O)(=O)Nc2ncccn2)cc1)c1ccc2c(c1)OCO2 | HEK293FT dCK*-IKZF1 | relative growth recovery | -3.11
COc1ccc(Cl)cc1C(=O)Nc1ccc(S(=O)(=O)Nc2nccc(C)n2)cc1 | HEK293FT dCK*-IKZF1 | relative growth recovery | -1.7
O=S(=O)(Nc1ccc(S(=O)(=O)Nc2ncccn2)cc1)c1ccc(Cl)cc1 | HEK293FT dCK*-IKZF1 | relative growth recovery | -4.2
Cc1csc(Nc2cccc(C3CCCN3C(=O)CO)n2)n1 (stereo unspecified) | HEK293FT dCK*-IKZF1 | relative growth recovery | 1.4
CC(C)(N)C(=O)N1CCC(CO)(c2cccc(Nc3ncc(-c4ccccc4)s3)n2)CC1 | HEK293FT dCK*-IKZF1 | relative growth recovery | -19.1
Cc1cnc(Nc2cccc(C(C(=O)N(C)C)C3CCN(C(=O)C4CCCCC4)CC3)n2)s1 (stereo unspecified) | HEK293FT dCK*-IKZF1 | relative growth recovery | 1.65
O=C1CCC(N2C(=O)c3ccc(C(=O)O)cc3C2=O)C(=O)N1 (stereo unspecified) | HEK293FT dCK*-IKZF1 | relative growth recovery | -0.47
Cc1cc(NS(=O)(=O)c2ccc(NC(=O)CCCOc3ccc(Cl)cc3)cc2)nc(C)n1 | HEK293FT dCK*-IKZF1 | relative growth recovery | -1.54
O=C(Nc1ccc(S(=O)(=O)Nc2ncccn2)cc1)c1cccc(Br)c1 | HEK293FT dCK*-IKZF1 | relative growth recovery | -4.75
Cc1ccc(C)c2c1[nH]c1nc(SCC(=O)Nc3cccc(F)c3)nnc12 | HEK293FT dCK*-IKZF1 | relative growth recovery | -2.81
Cc1csc(Nc2cccc(C3CCN(CC(=O)N4CCC(C(N)=O)CC4)CC3)n2)n1 | HEK293FT dCK*-IKZF1 | relative growth recovery | 5.36
CCCOc1ccc(C(=O)Nc2ccc(S(=O)(=O)Nc3ncccn3)cc2)cc1 | HEK293FT dCK*-IKZF1 | relative growth recovery | -3.33
Cc1nc2ccccn2c1CC(=O)N1CCOC(c2cccc(Nc3nccs3)n2)C1 (stereo unspecified) | HEK293FT dCK*-IKZF1 | relative growth recovery | 10.9
Cc1cnc(Nc2cccc(C3CCCN3C(=O)Cn3cnc4ccccc43)n2)s1 (stereo unspecified) | HEK293FT dCK*-IKZF1 | relative growth recovery | -19.5
CCCCCOC(=O)c1ccc(N2C(=O)c3ccc(Oc4ccc(N)cc4)cc3C2=O)cc1 | HEK293FT dCK*-IKZF1 | relative growth recovery | 1.57
